target: human α7 nAChR (Homo sapiens); construct: expressed in transfected cells; test: Evaluation of PAM activity with human α7 nACh receptor stably expressing cells (aequorin luminescence, FDSS7000); assay type: cell-based; details: 10 μM test compound; ACh at EC20; ratio of RLU (Max-Min) to control wells; read-out: α7PAM (%) @10 μM
Sequence (P36544 23-502): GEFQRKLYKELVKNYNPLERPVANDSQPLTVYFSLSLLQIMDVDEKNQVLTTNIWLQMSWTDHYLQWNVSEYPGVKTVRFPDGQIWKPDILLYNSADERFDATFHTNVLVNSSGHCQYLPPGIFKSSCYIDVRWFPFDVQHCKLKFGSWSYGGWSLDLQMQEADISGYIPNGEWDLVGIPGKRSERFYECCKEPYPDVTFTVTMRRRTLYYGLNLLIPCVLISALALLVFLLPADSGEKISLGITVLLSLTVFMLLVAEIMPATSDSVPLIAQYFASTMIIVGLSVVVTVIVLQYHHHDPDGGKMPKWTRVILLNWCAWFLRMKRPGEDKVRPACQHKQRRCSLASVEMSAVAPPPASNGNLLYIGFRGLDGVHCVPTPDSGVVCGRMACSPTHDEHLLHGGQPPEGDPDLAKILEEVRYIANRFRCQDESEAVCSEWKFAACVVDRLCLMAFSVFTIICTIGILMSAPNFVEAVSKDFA
Class Fulfilled: activity at 10 µM at least 300%. Class Not fulfilled: activity at 10 µM below 300%.

Recorded results for 3 molecules are shown here.
N#Cc1c(-c2ccccc2)ncn1C1CCN(C(=O)C2CCCCC2)CC1	Fulfilled
CC(C)(C)NC(=O)N1CCC(n2cnc(-c3ccccc3F)c2Cl)CC1	Fulfilled
O=C(NC1CCOCC1)N1CCC(n2cnc(-c3ccccc3F)c2Cl)CC1	Fulfilled

Hello, I need to know if O=C(N[C@H]1CC[C@H](n2cnc(-c3ccccc3)c2Cl)CC1)C1CCC(F)(F)CC1 has measured activity at 10 µM not below 300%. Thanks!
Not fulfilled

Is activity at 10 µM for O=C(C1CCC(F)(F)CC1)N1[C@@H]2CC[C@H]1C[C@H](n1cnc(-c3cccc(F)c3F)c1Cl)C2 at or above 300%?
Fulfilled

Determine whether measured activity at 10 µM meets or exceeds 300% for CC(C)(F)C(=O)N[C@H]1CC[C@@H](n2cnc(-c3ccc(Cl)cc3)c2C#N)CC1
Not fulfilled

Has O=C(NC1CCCCC1)N1CCC(n2cnc(-c3ccccn3)c2Cl)CC1 a recorded activity at 10 µM greater than or equal to 300%?
Not fulfilled

Exam item: decide whether the reported activity at 10 µM for O=C(NC1CCCCC1)N1[C@@H]2CC[C@H]1C[C@@H](n1cnc(-c3ccc(F)cc3)c1)C2 is at least 300%.
Not fulfilled

Check the entry O=C(NC1CCC(F)(F)CC1)N1CCC(n2cnc(-c3ccccn3)c2Cl)CC1 : does activity at 10 µM equal or exceed 300%?
Fulfilled

Dear colleague, could you confirm whether Cc1c(-c2ccc(F)cc2)ncn1[C@H]1CC[C@@H](NC(=O)C2CCC(F)(F)CC2)CC1 has activity at 10 µM at or above 300%?
Fulfilled
